Values from the supplement of paper PMC10567573

Reported protein stability index values for the following variants.
B1: POMT2 (parent)
chain: YHEAPMTRKHYQVTGYGINGTGDS

Variants of: B1
Assay: protein stability index of a GFP-peptide fusion (GPS, HEK-293T) (PSI 1-6); higher = more stable;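 also: lentivirally expressed fusions sorted by FACS into six bins by GFP to DsRed ratio, PSI derived from sequencing read proportions per bin multiplied by bin number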
Conditions: c terminus: a fixed tail appended
API note: the answer field is a bare number with no unit suffix.

* Y11E | 3.98
* P5C | 2.31
* G20R | 2.16
* V13A | 2.76

Annotate the variant `Y16E` with its measured protein stability index.
3.3

Name the recorded protein stability index of the item `M6H` in your answer.
1.69

Kindly indicate its recorded protein stability index. Item: `A4D`
2.95

Give the reported value of protein stability index for this record: `Y11F`
2.01

Name the recorded protein stability index of the item `I18T` in your answer.
2.42

Give protein stability index for `T21L`
2.1
